Taken from the Human Domainome abundance scans (Beltran et al. 2025).

B1: SH3 and PX domain-containing protein 2B, residues 155 to 209; numbered along this chain, A1X283 (parent)
chain: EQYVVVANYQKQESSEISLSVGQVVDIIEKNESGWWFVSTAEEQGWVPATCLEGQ

Variants of: B1
Test: abundance fitness (aPCA) (normalised: wild type 0, dead -1); higher = more abundant; growth selection in yeast, the domain comes from the species named
Conditions: Homo sapiens
Values of abundance fitness greater than or equal to -0.1 map to class 1; values below map to class 0.

In [3]: df
Out[3]:
    mutation_notation  label_class
 0                V4Q      class 1
 1                Q2W      class 0
 2               S20Q      class 0
 3               E43Y      class 0
 4               C51Y      class 0
 5                E1A      class 0
 6               V21G      class 0
 7                Q2C      class 1
 8                Q2L      class 0
 9               I27C      class 1
10               S33C      class 0
11                V6I      class 1
12               G54D      class 0
13               I28T      class 0
14               C51A      class 0
15               A49G      class 1
16               W36A      class 0
17               I17S      class 0
18               V21M      class 1
19               E29C      class 0
20               E16C      class 0
21               V21A      class 1
22               V47A      class 0
23               D26H      class 0
24               E42S      class 1
25                Q2P      class 1
26               I28H      class 1
27               I28P      class 0
28               S14C      class 1
29                Y9D      class 0
30               T40I      class 0
31               P48D      class 0
32               I27E      class 0
33               Q55L      class 0
34               N31D      class 0
35                V5I      class 0
36               S15M      class 0
37               T40E      class 0
38               G34L      class 0
39               G22D      class 0
40               G45W      class 0
41               I28M      class 0
42                E1S      class 0
43               L19G      class 0
44               E29Y      class 0
45               G34P      class 0
